Values from patent US10821115B2

Target Of Assay: recombinant human Mcl-1 (residues 171-327) / Bim interaction (Homo sapiens (Human), UniProt Q07820)
Sequence (Q07820 171-327): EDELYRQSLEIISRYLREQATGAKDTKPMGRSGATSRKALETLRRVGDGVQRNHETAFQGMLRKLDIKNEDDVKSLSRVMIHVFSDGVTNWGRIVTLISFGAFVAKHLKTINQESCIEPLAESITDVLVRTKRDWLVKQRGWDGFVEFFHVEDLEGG
Test Description: biochemical
Type: binding
Reported Conditions: 0.1 nM Mcl-1(171-327), 0.05 nM biotin-Bim (51-76); read-out: Mcl-1 HTRF IC50
Listed here are compounds together with their documented IC50.
Write the answer as a number in nM, unit excluded.

- Compound: "CO[C@@]1(CN2CCN([C@@H]3CCOC3)CC2)/C=C/C[C@H](C)[C@@H](C)S(=O)(=O)NC(=O)c2ccc3c(c2)N(C[C@@H]2CC[C@H]21)C[C@@]1(CCCc2cc(Cl)ccc21)CO3 (single isomer, unassigned)"
  Property Measured: "IC50"
  Test Result: 0.155
- Compound: "CO[C@]1(CN2CCN(C3COC3)CC2)/C=C/[C@H](C)[C@H](C)CS(=O)(=O)NC(=O)c2ccc3c(c2)N(C[C@@H]2CC[C@H]21)C[C@@]1(CCCc2cc(Cl)ccc21)CO3"
  Property Measured: "IC50"
  Test Result: 0.096
- Compound: "COCC[C@@H]1[C@@H](C)C/C=C/[C@@](CN2CCN(C)CC2)(OC)[C@@H]2CC[C@H]2CN2C[C@@]3(CCCc4cc(Cl)ccc43)COc3ccc(cc32)C(=O)NS1(=O)=O"
  Property Measured: "IC50"
  Test Result: 0.177

[in] // Input: CO[C@@]1(CN2CCN3CCN(C(C)C)C[C@@H]3C2)/C=C/C[C@H](C)[C@@H](C)S(=O)(=O)NC(=O)c2ccc3c(c2)N(C[C@@H]2CC[C@H]21)C[C@@]1(CCCc2cc(Cl)ccc21)CO3 (single isomer, unassigned) [Example 241] . Output its IC50 only.
[out] 0.15

###

Listed here are compounds together with their documented IC50.
Target Of Assay: recombinant human Mcl-1 (residues 171-327) / Bim interaction (Homo sapiens (Human), UniProt Q07820)
Test Description: biochemical
Assay type: binding
Reported Conditions: 0.1 nM Mcl-1(171-327), 0.05 nM biotin-Bim (51-76); read-out: Mcl-1 HTRF IC50
Write the answer as a number in pM, unit excluded.

Before answering, review these 2 worked examples.
- Compound: "C[C@@H]1[C@@H](C)C/C=C/[C@@](CN2CCN3CCOC[C@@H]3C2)(OCC(F)(F)F)[C@@H]2CC[C@H]2CN2C[C@@]3(CCCc4cc(Cl)ccc43)COc3ccc(cc32)C(=O)NS1(=O)=O [Example 50]"
  IC50 (pM): 736
- Compound: "CCO[C@@]1(CN2CCN(CC)CC2)/C=C/C[C@H](C)[C@@H](C)S(=O)(=O)NC(=O)c2ccc3c(c2)N(C[C@@H]2CC[C@H]21)C[C@@]1(CCCc2cc(Cl)ccc21)CO3 [Example 112]"
  IC50 (pM): 617

# context switch: different compound, same IC50
[in] // Input: CO[C@]1(CN2CCN3CCOC[C@@H]3C2)/C=C/C[C@H](C)[C@@H](C)S(=O)(=O)NC(=O)c2ccc3c(n2)N(C[C@@H]2CC[C@H]21)C[C@@]1(CCCc2cc(Cl)ccc21)CO3 [Example 185] . Output its IC50 only.
[out] 170

###

Target Of Assay: recombinant human Mcl-1 (residues 171-327) / Bim interaction (Homo sapiens (Human), UniProt Q07820)
Test Description: biochemical
Format: binding
Reported Conditions: TR-FRET, Mcl-1(171-327) / biotin-Bim (51-76); read-out: Mcl-1 HTRF IC50
IC50 less than 0.4 nM is 1 (yes); IC50 greater than or equal to 0.4 nM is 0 (no).

Example results:
- Molecule: "C[C@H]1CC/C=C/[C@](C)(O)[C@@H]2CC[C@H]2CN2C[C@@]3(CCCc4cc(Cl)ccc43)COc3ccc(cc32)C(=O)NS1(=O)=O (single isomer, unassigned) [Example 100028]"
  Class Assignment: "0 (no)"
- Molecule: "C[C@H]1CC/C=C/[C@@](C)(O)[C@@H]2CC[C@H]2CN2C[C@@]3(CCCc4cc(Cl)ccc43)COc3ccc(cc32)C(=O)NS1(=O)=O (single isomer, unassigned) [Example 100032]"
  Class Assignment: "0 (no)"
- Molecule: "C[C@@H]1[C@@H](C)C/C=C/[C@@](O)([C@@H](O)C(=O)N(C)C)[C@@H]2CC[C@H]2CN2C[C@@]3(CCCc4cc(Cl)ccc43)COc3ccc(cc32)C(=O)NS1(=O)=O"
  Class Assignment: "0 (no)"

Turning now to a further molecule:
[in] Dear reviewer, please state whether `CO[C@]1(CCN2CCN3CCOC[C@@H]3C2)/C=C/C[C@H](C)[C@@H](C)S(=O)(=O)NC(=O)c2ccc3c(c2)N(C[C@@H]2CC[C@H]21)C[C@@]1(CCCc2cc(Cl)ccc21)CO3` has IC50 strictly beneath 0.4 nM.
[out] 1 (yes)
